Target: Recombinant SIK2 (Homo sapiens (Human), UniProt Q9H0K1)
Sequence (Q9H0K1 whole entry): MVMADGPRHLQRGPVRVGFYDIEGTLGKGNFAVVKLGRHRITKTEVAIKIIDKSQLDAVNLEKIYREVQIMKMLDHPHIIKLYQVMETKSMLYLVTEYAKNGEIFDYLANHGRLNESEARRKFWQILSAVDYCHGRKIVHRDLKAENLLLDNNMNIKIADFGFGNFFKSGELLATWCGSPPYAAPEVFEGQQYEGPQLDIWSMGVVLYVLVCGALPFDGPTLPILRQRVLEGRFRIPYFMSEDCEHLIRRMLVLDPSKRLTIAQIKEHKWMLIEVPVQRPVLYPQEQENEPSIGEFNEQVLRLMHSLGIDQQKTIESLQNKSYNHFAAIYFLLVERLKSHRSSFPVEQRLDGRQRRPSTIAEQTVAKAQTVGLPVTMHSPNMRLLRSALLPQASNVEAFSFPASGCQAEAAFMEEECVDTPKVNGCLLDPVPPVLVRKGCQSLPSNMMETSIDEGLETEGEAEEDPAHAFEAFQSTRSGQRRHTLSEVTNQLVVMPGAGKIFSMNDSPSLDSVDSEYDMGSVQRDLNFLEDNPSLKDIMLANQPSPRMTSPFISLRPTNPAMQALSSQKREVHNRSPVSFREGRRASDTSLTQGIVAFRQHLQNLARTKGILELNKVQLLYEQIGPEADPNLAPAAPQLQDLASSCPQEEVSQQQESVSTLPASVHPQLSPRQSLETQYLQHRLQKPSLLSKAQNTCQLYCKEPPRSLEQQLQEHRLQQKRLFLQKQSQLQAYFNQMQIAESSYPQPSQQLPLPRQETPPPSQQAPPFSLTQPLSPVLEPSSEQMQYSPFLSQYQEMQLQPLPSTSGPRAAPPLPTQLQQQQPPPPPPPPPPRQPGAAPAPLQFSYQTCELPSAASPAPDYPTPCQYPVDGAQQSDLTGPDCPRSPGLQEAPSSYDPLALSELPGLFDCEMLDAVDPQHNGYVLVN
Assay: biochemical
Settings: recombinant SIK2 2.5 nM, 1 μM ATP; read-out: SIK2 IC50
experimental_endpoint: pIC50
Remember the convention: pIC50 equals -log10 of concentration in molar.

Worked examples, 3 compounds total:
* CCn1cc(-c2ccn3c(-c4ccc(-c5noc(C)n5)cc4)cnc3c2)cn1 | 6.60
* CCn1cc(-c2ccc3c(-c4ccc(C#N)cc4)cnn3c2)cn1 | 8.95
* CC1(COc2ccc3c(c2)ncn3-c2ccc3cccc(C4CCNC4)c3n2)COC1 (stereo not drawn) | 8.47

Q: Item "N#Cc1ccc(-n2cnc3cc(-c4cnn(C5CC5)c4)ccc32)cc1" : provide pIC50
Result: 8.63

Q: Item "CN(Cc1nc2ccccc2n1C)C(=O)c1ccn2c(-c3ccc(C#N)cc3)cnc2c1" : provide pIC50
Result: 6.22

Q: Item "Cn1c(CNC(=O)c2ccn3c(-c4ccc(C#N)cc4)cnc3c2)nc2ccccc21" : provide pIC50
Result: 7.84

Q: Item "CCc1nnc(-c2c(OC)cc(-c3cnc4cc(OCc5ccc(C)nc5)ccn34)cc2OC)o1" : provide pIC50
Result: 7.43

Q: Item "CC1(COc2ccc3c(c2)ncn3-c2ccc3cccc(OC4CNC4)c3n2)COC1" : provide pIC50
Result: 7.61

Q: Item "Cc1ccc(CN(C)C(=O)c2ccn3c(-c4ccc(C#N)cc4)cnc3c2)cn1" : provide pIC50
Result: 5.77

----------
Biological target: SIK3 (Homo sapiens (Human), UniProt Q9Y2K2)
Sequence (Q9Y2K2 whole entry): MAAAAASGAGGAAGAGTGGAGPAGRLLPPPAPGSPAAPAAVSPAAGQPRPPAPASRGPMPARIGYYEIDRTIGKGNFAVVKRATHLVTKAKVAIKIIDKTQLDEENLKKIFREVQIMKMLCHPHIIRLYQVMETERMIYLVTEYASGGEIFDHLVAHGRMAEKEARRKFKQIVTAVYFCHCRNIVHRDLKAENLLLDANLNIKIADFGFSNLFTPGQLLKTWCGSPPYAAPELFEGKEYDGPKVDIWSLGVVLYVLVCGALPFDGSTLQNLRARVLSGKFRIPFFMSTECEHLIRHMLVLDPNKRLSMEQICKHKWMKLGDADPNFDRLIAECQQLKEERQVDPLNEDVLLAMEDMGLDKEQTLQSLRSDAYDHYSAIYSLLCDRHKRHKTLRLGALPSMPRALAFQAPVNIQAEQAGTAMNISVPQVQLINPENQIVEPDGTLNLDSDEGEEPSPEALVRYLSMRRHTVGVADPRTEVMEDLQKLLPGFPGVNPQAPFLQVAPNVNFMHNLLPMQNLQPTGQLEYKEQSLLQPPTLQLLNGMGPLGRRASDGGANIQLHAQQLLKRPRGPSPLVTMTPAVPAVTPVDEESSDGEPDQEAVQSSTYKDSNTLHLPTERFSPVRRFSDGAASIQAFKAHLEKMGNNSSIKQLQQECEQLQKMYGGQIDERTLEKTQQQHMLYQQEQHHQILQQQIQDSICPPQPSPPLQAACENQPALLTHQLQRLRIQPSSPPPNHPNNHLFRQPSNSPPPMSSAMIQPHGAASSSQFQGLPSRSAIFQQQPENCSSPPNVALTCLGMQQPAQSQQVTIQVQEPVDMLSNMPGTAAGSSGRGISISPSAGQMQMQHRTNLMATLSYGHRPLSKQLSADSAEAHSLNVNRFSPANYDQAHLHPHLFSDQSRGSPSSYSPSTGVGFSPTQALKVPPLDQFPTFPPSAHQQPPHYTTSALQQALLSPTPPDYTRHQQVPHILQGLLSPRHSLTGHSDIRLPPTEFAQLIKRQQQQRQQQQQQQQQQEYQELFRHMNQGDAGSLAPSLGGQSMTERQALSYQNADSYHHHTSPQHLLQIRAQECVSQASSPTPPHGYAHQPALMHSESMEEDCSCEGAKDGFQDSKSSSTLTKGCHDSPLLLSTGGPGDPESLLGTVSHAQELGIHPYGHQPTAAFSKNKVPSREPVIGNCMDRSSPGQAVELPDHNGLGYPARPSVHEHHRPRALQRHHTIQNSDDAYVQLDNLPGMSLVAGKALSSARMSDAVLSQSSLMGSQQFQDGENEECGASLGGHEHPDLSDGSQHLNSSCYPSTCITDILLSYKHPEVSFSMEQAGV
// boundary case: IC50 equal to 30 nM maps to class 0; strictly smaller maps to class 1

- CCc1nc(-c2c(OC)cc(-c3cnc4cc(-c5cnn(C)c5)ccn34)cc2OC)no1: class 1

Q: Threshold test, IC50 < 30 nM: "CCn1cc(-c2ccn3c(-c4ccc(-c5nnc(C)o5)cc4)cnc3c2)cn1"
Result: class 0

Q: Threshold test, IC50 < 30 nM: "CN1CC(c2cccc3ccc(-n4cnc5cc(OCC6(C)COC6)ccc54)nc23)C1"
Result: class 1

Q: Threshold test, IC50 < 30 nM: "N#Cc1ccc(-c2cnc3cc(C(=O)N4CCn5c(nc6ccccc65)C4)ccn23)cc1"
Result: class 0

Q: Threshold test, IC50 < 30 nM: "COc1cc(-c2cnc3cc(C(=O)NCc4ccc(C)nc4)ccn23)cc(OC)c1C(=O)NCC(F)(F)F"
Result: class 1

Q: Threshold test, IC50 < 30 nM: "CC1(COc2ccc3c(c2)ncn3-c2ccc3cccc(N4CCC5(CCN5)CC4)c3n2)COC1"
Result: class 1

Q: Threshold test, IC50 < 30 nM: "CC1(COc2ccc3c(c2)ncn3-c2ccc3cccc(N4CC(N)C4)c3n2)COC1"
Result: class 1

----------
Target: Recombinant SIK2 (Homo sapiens (Human))
Assay: biochemical
Conditions: recombinant SIK2 2.5 nM, 1 μM ATP; read-out: SIK2 IC50
experimental_endpoint: pIC50
Remember the convention: pIC50 equals -log10 of concentration in molar.

Worked examples, 3 compounds total:
• N#Cc1ccc(-n2cnc3cc(C(=O)NCc4nc5ccccc5[nH]4)ccc32)cc1 = 7.70
• CC1(COc2ccn3c(-c4ccc(C#N)cc4)cnc3c2)COC1 = 6.68
• CC1(COc2ccc3c(c2)ncn3-c2ccc3cccc(N4CC(N)C4)c3n2)COC1 = 8.08

Q: Item "CC1(COc2ccc3c(c2)ncn3-c2ccc3cccc(N4CCC5(CCN5)CC4)c3n2)COC1" : provide pIC50
Result: 9.01

Q: Item "CCc1nnc(-c2c(OC)cc(-c3cnc4cc(-c5cnn(C6CC6)c5)ccn34)cc2OC)o1" : provide pIC50
Result: 8.83

Q: Item "N#Cc1ccc(-c2cnn3cc(-c4cnn(C5CC5)c4)cnc23)cc1" : provide pIC50
Result: 8.06

Q: Item "CCn1cc(-c2cnc3c(-c4ccc(C#N)cc4)cnn3c2)cn1" : provide pIC50
Result: 8.47

Recorded values, source patent US20240025892A1.
